# MEASURED ON: T1, Processed stabilized hMPV PreF trimer (115BV) (human metapneumovirus, strain B2)
# T1 construct: also called Processed hMPV PreF trimer; processed PreF
# ASSAY PROCEDURE: BLI, mAb on anti-human Fc sensor
Label key: Y means Octet binding response under 0.4 nm; N means Octet binding response of 0.4 nm or more.

Find out if reported Octet binding response for M2B10 (antibody, V domains shown, IgG) VH: QVQLVESGGGVVQPGRSLRLSCAASGFTFSNYPMHWVRQAPGKGLAWVALISYDGRTKYYADSVKGRFTISRDNSMNTVYLQMNSLRAEDTAVYYCAREGLEYLNYWGQGTLVTVSS VL: EIVLTQSPGTLSLSPGERATLSCRASQSISSNSLAWYQQKPGQAPRLLSYGTSNRATGIPDRFSGSGSGTDFTLTISRLEPEDFAVYYCQQYGSSPLTFGPGTKVDIK is less than 0.4 nm
Y

Find out if reported Octet binding response for M3D08 (antibody, V domains shown, IgG) VH: QVQLQESGPGLVKPSETLSLTCSVSGVSISSHYWSWIRQPAGKGLEWIGRLYTSGTTTYNPSLNSRVTMSVDTTNNRLSLRLTSVTAADTAVYYCARDVRLTVFGALHNWFDPWGQGILVTVSS VL: DIQMTQSPSSLSASVGDRVTITCRASQSIGTHLNWYQQQRGRAPKLLVYAASGLQSGVPSRFSGSGSGTYFTLTISSLQPEDFATYYCQQSYSTPSITFGQGSRLDIK is less than 0.4 nm
Y

Find out if reported Octet binding response for M2E08 (antibody, V domains shown, IgG) VH: EVQLVESGGDLVLPGGSLRLSCEASGFMFSSYAMNWVRQAPGKGLERVSGISGSGGNTYYADSVKGRFTISRDNSKNIVYLQMNSLRAEDTAVYYCAKDLGNDYFYYIDVWGKGTTVMVSS VL: QSVLTQPPSVSGAPGQRVTISCTGTNFNIGAGYDVQWYQQLPGAAPKLLIHGNTYRPSGVPDRFSGSKSGTSASLAITGLQAEDEADYYCQSYDSSLSMVFGGGTKLTVL is less than 0.4 nm
Y

Find out if reported Octet binding response for M2B12 (antibody, V domains shown, IgG) VH: QVQLVESGGGVVQPGRSLRLSCEASGFTFSSSAMHWVRQAPGKGLEWVAIISYHGTNKDYSDSVRGRFTISRDNSKNTLYLQMNGLRGDDTAVYYCAKEAAVSGNFDSWGQGTMVTVSS VL: QLVLTQSPSASASLGASVKLTCTLISGPSNYAIAWHRQQPQKGPRYLMKVNSDGSHTKGDGIPDRFSGSSSGTERYLIISNLQSEDEADYYCQTWGSGIYVFGPGTKVTVL is less than 0.4 nm
N
